Reference source: patent US5807535A

Listed here are compounds together with their documented biodistribution blood.
- assay-notes: Biodistribution of 99mTc complexes in mice
- Assay type: in vivo, Balb/c mice
- cond: 5 min
The number alone won't do; follow it with the unit.

// worked examples, biodistribution blood included
>  <chemical-structure>
O=C(O)CN(CCN(CC(=O)O)CC(=O)Nc1ccc(Cl)cc1O)CC(=O)Nc1ccc(Cl)cc1O

>  <biodistribution blood>
7.4 % Injected dose

$$$$
>  <chemical-structure>
CC(C)(C)c1ccc(O)c(NC(=O)CN(CCN(CC(=O)O)CC(=O)Nc2cc(C(C)(C)C)ccc2O)CC(=O)O)c1

>  <biodistribution blood>
7.87 % Injected dose

$$$$
>  <chemical-structure>
O=C(O)CN(CCN(CC(=O)O)CC(=O)Nc1ccccc1O)CC(=O)Nc1ccccc1O

>  <biodistribution blood>
9.77 % Injected dose

$$$$

Fill in the blank: the reported biodistribution blood of Cc1cc(C)c(O)c(NC(=O)CN(CCN(CC(=O)O)CC(=O)Nc2cc(C)cc(C)c2O)CC(=O)O)c1 is ____.
10.31 % Injected dose
